System: MDA-MB-231
Assay: Cytotoxicity against Homo sapiens (human) MDA-MB-231 cells after 48 hr by sulforhodamine B assay
Format: functional
Details: MDA-MB-231, 48 h
outcome_measure: TGI
Write your answer as a measured quantity: the number, then the unit.

-- ask Fill in the blank: the reported TGI of `ClCc1ccc(Cn2cnc3c(Cl)ncnc32)cc1` is ____.
-- reply 3.89 µM

-- ask Also `ClCc1cccc(Cn2cnc3ncnc(Cl)c32)c1` ?
-- reply 3.38 µM

-- ask Also `ClCc1cccc(Cn2cnc3nc(Cl)nc(Cl)c32)c1` ?
-- reply 1.73 µM

-- ask Also `ClCc1ccc(Cn2cnc3ncnc(Cl)c32)cc1` ?
-- reply 3.38 µM

Continuing:
-- ask Fill in the blank: the reported TGI of `ClCc1cccc(Cn2cnc3c(Cl)nc(Cl)nc32)c1` is ____.
-- reply 3.71 µM

-- ask Also `ClCc1ccccc1Cn1cnc2nc(Cl)nc(Cl)c21` ?
-- reply 0.91 µM

-- ask Also `ClCc1ccccc1Cn1cnc2ncnc(Cl)c21` ?
-- reply 6.91 µM

-- ask Also `ClCc1cccc(Cn2cnc3c(Cl)ncnc32)c1` ?
-- reply 4.07 µM

-- ask Also `ClCc1ccc(Cn2cnc3nc(Cl)nc(Cl)c32)cc1` ?
-- reply 3.09 µM

-- ask Also `ClCc1ccccc1Cn1cnc2c(Cl)ncnc21` ?
-- reply 7.41 µM

-- ask Also `Nc1nc(Cl)c2ncn(Cc3ccc(CCl)cc3)c2n1` ?
-- reply 34.7 µM

-- ask Also `ClCc1ccccc1Cn1cnc2c(Cl)nc(Cl)nc21` ?
-- reply 1.38 µM

-- ask Also `ClCc1ccc(Cn2cnc3c(Cl)nc(Cl)nc32)cc1` ?
-- reply 3.63 µM

-- ask Also `Nc1nc(Cl)c2ncn(Cc3cccc(CCl)c3)c2n1` ?
-- reply 28.8 µM

-- ask Also `Nc1nc(Cl)c2ncn(Cc3ccccc3CCl)c2n1` ?
-- reply 9.55 µM

----------
Tested on: SK-MEL-2
Assay: Cytotoxicity against Homo sapiens (human) SK-MEL-2 cells after 48 hr by sulforhodamine B assay
Format: functional
Conditions: SK-MEL-2, 48 h
outcome_measure: GI50 (µM)
The answer is to be given in µM; state only the numeric part.

Examples from the recorded data:
-- ask Fill in the blank: the reported GI50 of `ClCc1ccc(Cn2cnc3nc(Cl)nc(Cl)c32)cc1` is ____.
-- reply 1.12

-- ask Also `ClCc1cccc(Cn2cnc3nc(Cl)nc(Cl)c32)c1` ?
-- reply 1.77

-- ask Also `ClCc1ccccc1Cn1cnc2c(Cl)ncnc21` ?
-- reply 2.75

-- ask Also `ClCc1ccc(Cn2cnc3c(Cl)ncnc32)cc1` ?
-- reply 4.36

-- ask Also `ClCc1ccccc1Cn1cnc2ncnc(Cl)c21` ?
-- reply 4.16

Continuing:
-- ask Fill in the blank: the reported GI50 of `ClCc1cccc(Cn2cnc3ncnc(Cl)c32)c1` is ____.
-- reply 5.75

-- ask Also `Nc1nc(Cl)c2ncn(Cc3cccc(CCl)c3)c2n1` ?
-- reply 10.7

-- ask Also `ClCc1ccccc1Cn1cnc2nc(Cl)nc(Cl)c21` ?
-- reply 2.75

-- ask Also `ClCc1ccc(Cn2cnc3ncnc(Cl)c32)cc1` ?
-- reply 6.3

-- ask Also `ClCc1cccc(Cn2cnc3c(Cl)nc(Cl)nc32)c1` ?
-- reply 1.99

-- ask Also `ClCc1ccc(Cn2cnc3c(Cl)nc(Cl)nc32)cc1` ?
-- reply 19.9

-- ask Also `ClCc1ccccc1Cn1cnc2c(Cl)nc(Cl)nc21` ?
-- reply 2.18

-- ask Also `ClCc1cccc(Cn2cnc3c(Cl)ncnc32)c1` ?
-- reply 21.9

These measurements were taken from ChEMBL document CHEMBL3044672.
